target-or-test-system: Avian Sarcoma Virus integrase (UniProt P03354)
Sequence (P03354 1281-1567): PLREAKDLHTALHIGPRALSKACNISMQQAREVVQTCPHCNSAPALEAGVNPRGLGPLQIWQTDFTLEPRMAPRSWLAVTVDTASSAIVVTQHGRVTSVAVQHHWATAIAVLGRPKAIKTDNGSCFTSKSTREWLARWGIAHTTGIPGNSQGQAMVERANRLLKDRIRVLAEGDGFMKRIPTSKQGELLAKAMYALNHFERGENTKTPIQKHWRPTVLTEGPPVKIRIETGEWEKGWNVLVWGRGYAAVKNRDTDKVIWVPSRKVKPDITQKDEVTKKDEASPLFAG
assay-explanation: Specificity: single end and concerted integration in vitro, ASV integrase
Format: biochemical
measurement-parameters: Table 6; read-out: ASV Concerted IC50
Catalogue of IC50 values
readout: IC50

>>> obs_value("Cn1ncnc2c(=O)n(C)c(=O)nc1-2 [Formula I-1]")
"> 100 µM"
>>> obs_value("Cc1nnc(C(=O)NC(C)(C)c2nc(C(=O)NCc3ccc(F)cc3)c(O)c(=O)n2C)o1 [RAL, Raltegravir, reference compound]")
"0.6 µM"
>>> obs_value("O=C(CCCCCNc1ccc([N+](=O)[O-])c2nonc12)ON1C(=O)CCC1=O [II-4]")
"53 µM"

* * *

target-or-test-system: HIV IN (Wild-type monomer) (Human immunodeficiency virus type 1 group M subtype B, UniProt P04585)
Construct: 1 uM HIV IN (Wild-type monomer)
Format: biochemical, HIV-1
measurement-parameters: Table 1; cross validation assay at compound concentration of 10 uM
readout: Relative % concerted integration (%)

>>> obs_value("CCn1nc(-c2cccs2)nc2c(=O)n(C)c(=O)nc1-2")
2.07
>>> obs_value("Cn1nc(-c2ccccc2)nc2c(=O)n(C)c(=O)nc1-2")
2.73
>>> obs_value("Cn1nc(/C=C\\c2ccccc2)nc2c(=O)n(C)c(=O)nc1-2")
1.76
>>> obs_value("CCn1nc(-c2ccc(C(F)(F)F)cc2)nc2c(=O)n(C)c(=O)nc1-2")
0.72
>>> obs_value("CCn1nc(-c2ccccn2)nc2c(=O)n(C)c(=O)nc1-2")
6.33
>>> obs_value("Cn1ncnc2c(=O)n(C)c(=O)nc1-2")
3.84
>>> obs_value("Cn1nc(-c2ccc(F)cc2)nc2c(=O)n(C)c(=O)nc1-2")
0.42
>>> obs_value("CCn1nc(-c2cc(Br)cs2)nc2c(=O)n(C)c(=O)nc1-2")
1.72
>>> obs_value("CCCc1nc2c(=O)n(C)c(=O)nc-2n(C)n1")
0.07
>>> obs_value("Cn1nc(-c2ccc([N+](=O)[O-])cc2)nc2c(=O)n(C)c(=O)nc1-2")
3.26
>>> obs_value("Cn1nc(-c2ccc(C(F)(F)F)cc2)nc2c(=O)n(C)c(=O)nc1-2")
1.56
>>> obs_value("CCn1nc(-c2cc(Br)ccc2F)nc2c(=O)n(C)c(=O)nc1-2")
0.26

* * *

target-or-test-system: HIV IN (Wild-type monomer) (Human immunodeficiency virus type 1 group M subtype B, UniProt P04585)
Construct: 1 uM HIV IN (Wild-type monomer)
Assay type: biochemical, HIV-1
measurement-parameters: IC50 (concerted integration)
readout: IC50 (µM)

>>> obs_value("CCc1ccc(-c2nc3c(=O)n(C)c(=O)nc-3n(CC)n2)cc1 [Formula I-13]")
0.27
